Each entry below carries its recorded IC50.
# Tested on: p21 transcripts in SJSA-1 cells
# experiment.notes: p21 assay (QRT-PCR of p21 transcripts in SJSA-1 cells)
# Format: cell-based, human
# test.parameters: Homo sapiens, SJSA-1, 7 h, cell assay (SJSA-1 cell); p21 induction, 7 hours incubation

Below, 2 compounds whose answers are already recorded.
[
  {
    "compound": "CC(C)[C@@H](CS(=N)(=O)C(C)C)N1C(=O)[C@@](C)(CC(=O)NS(=O)(=O)c2ccc(F)cc2)C[C@H](c2cccc(Cl)c2)[C@H]1c1ccc(Cl)cc1 (stereo partly drawn)",
    "target.desc": "p21 transcripts in SJSA-1 cells",
    "readout.name": "IC50",
    "val": "1 to 10 µM"
  },
  {
    "compound": "Cc1ccc(S(=N)(=O)NC(=O)C[C@@]2(C)C[C@H](c3cccc(Cl)c3)[C@@H](c3ccc(Cl)cc3)N([C@H](CS(=O)(=O)C(C)C)C(C)C)C2=O)cc1 (stereo partly drawn)",
    "target.desc": "p21 transcripts in SJSA-1 cells",
    "readout.name": "IC50",
    "val": "1 to 10 µM"
  }
]

Could you now consider this next compound?
Field request: IC50 | item: CC(C)[C@@H](CS(=N)(=O)C(C)C)N1C(=O)[C@@](C)(CC(=O)NC23CCC(C(=O)O)(CC2)CC3)C[C@H](c2cccc(Cl)c2)[C@H]1c1ccc(Cl)cc1 (stereo partly drawn)
1 to 10 µM
